target: δ opioid receptors (Mus musculus); construct: Bioassays Using Isolated Organ Preparations; from tissue; host or cells: mouse vas deferens (isolated organ); test: Mouse vas deferens (MVD) bioassay, antagonism of electrically evoked contraction inhibition by δ-selective agonists; type: tissue-based; settings: Ke (nM) against [Leu5]Enkephalin, MVD assay; δ agonist [Leu5]enkephalin; means of 3-8 determinations
Sequence (P32300 whole entry): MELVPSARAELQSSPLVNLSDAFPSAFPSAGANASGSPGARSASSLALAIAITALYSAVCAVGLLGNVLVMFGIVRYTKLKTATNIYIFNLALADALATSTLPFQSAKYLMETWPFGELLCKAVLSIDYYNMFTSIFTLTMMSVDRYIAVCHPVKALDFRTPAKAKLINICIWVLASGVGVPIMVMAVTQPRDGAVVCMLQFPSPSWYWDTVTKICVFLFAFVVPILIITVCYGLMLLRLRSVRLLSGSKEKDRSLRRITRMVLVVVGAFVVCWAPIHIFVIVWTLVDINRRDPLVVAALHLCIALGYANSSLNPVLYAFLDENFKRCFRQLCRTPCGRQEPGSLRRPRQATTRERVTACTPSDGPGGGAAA
Peptide text beside a SMILES is read from it.
reportedMetric: Kb (nM)
Output spec: scalar in nM, unitless text.

Worked examples, 3 compounds total:
• CN[C@@H](Cc1ccc(O)cc1)C(=O)N1Cc2ccccc2C[C@H]1C(=O)N[C@@H](Cc1ccccc1)C(=O)N[C@@H](Cc1ccccc1)C(=O)O [Tyr(N^α Me)-TicPhePheOH, Tyr(N^α Me)-Tic-Phe-Phe-OH] (HELM PEPTIDE1{[meY].[Tic].F.F}$$$$V2.0) = 1.01
• N[C@@H](Cc1ccc(O)cc1)C(=O)N1Cc2ccccc2C[C@H]1C(=O)N[C@@H](Cc1c[nH]c2ccccc12)C(=O)O [HTyrTicTrpOH] (HELM PEPTIDE1{Y.[Tic].W}$$$$V2.0) = 10.6
• NC(=O)[C@H](Cc1ccccc1)NC(=O)[C@@H]1Cc2ccccc2CN1C(=O)[C@@H](N)Cc1ccc(O)cc1 [HTyrTicPheNH2, H-Tyr-Tic-Phe-NH2] (HELM PEPTIDE1{Y.[Tic].F.[am]}$$$$V2.0) = 43.9

Which Kb reading was recorded for the compound N[C@@H](Cc1ccc(O)cc1)C(=O)N1Cc2ccccc2C[C@H]1C(=O)N[C@@H](Cc1ccccc1)C(=O)O [HTyrTicPheOH, H-Tyr-Tic-Phe-OH] (HELM PEPTIDE1{Y.[Tic].F}$$$$V2.0) ? 11.7

----------
biological target: δ opioid receptor (Rattus norvegicus, UniProt P33533); construct: Male Sprague-Dawley rats (300-350 g) from the Canadian Breeding Laboratories were decapitated and after removal of the cerebellum the brains were homogenized; from tissue; host or cells: rat brain (without cerebellum) membranes, male Sprague-Dawley; test: δ opioid receptor binding assay, displacement of δ-selective radioligand from rat brain membranes; details: δ-selectivity ratio
Sequence (P33533 whole entry): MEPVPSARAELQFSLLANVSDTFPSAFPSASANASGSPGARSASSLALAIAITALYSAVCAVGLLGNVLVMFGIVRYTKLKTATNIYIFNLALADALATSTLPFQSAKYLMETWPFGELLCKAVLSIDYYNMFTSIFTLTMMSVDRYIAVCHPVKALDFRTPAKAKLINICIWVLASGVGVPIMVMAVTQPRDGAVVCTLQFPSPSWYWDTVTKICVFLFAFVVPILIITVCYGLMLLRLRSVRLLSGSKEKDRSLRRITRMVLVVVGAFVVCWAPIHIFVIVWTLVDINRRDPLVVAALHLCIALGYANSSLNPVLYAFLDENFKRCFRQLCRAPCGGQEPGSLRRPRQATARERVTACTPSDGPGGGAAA
Peptide text beside a SMILES is read from it.
# maps each entry to its Ki^μ /Ki^δ

The examples below pair each entry with its known result.
- N[C@@H](Cc1ccc(O)cc1)C(=O)N1Cc2ccccc2C[C@H]1C(=O)N[C@@H](Cc1cccc2ccccc12)C(=O)N[C@@H](Cc1ccccc1)C(=O)O [HTyrTic-1-NalPheOH, H-Tyr-Tic-1-Nal-Phe-OH] (HELM PEPTIDE1{Y.[Tic].[O=C([C@H](Cc1cccc2ccccc12)N[*:1])[*:2]].F}$$$$V2.0): 982
- N[C@@H](Cc1ccc(O)cc1)C(=O)N1Cc2ccccc2C[C@H]1C(=O)N[C@@H](Cc1ccccc1)C(=O)O [HTyrTicPheOH, H-Tyr-Tic-Phe-OH] (HELM PEPTIDE1{Y.[Tic].F}$$$$V2.0): 141

// query Ki^μ /Ki^δ value for entry NC(=O)[C@H](CO)NC(=O)[C@@H]1CCCN1C(=O)[C@H](Cc1ccc(O)cc1)NC(=O)[C@H](Cc1ccccc1)NC(=O)[C@H](Cc1ccccc1)NC(=O)[C@@H]1Cc2ccccc2CN1C(=O)[C@@H](N)Cc1ccc(O)cc1 [HTyrTicPhePheTyrProSerNH2, H-Tyr-Tic-Phe-Phe-Tyr-Pro-Ser-NH2] (HELM PEPTIDE1{Y.[Tic].F.F.Y.P.S.[am]}$$$$V2.0) 731
